Tested on: HOP-62 complex spheroids with HUVEC/MSC, viability
Assay: Anticancer human tumor HOP-62 cell line growth inhibition [RAS]; active = viability on the fitted dose curve at most 10% of control; inactive = the rest;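 also: spheroids exposed to agents for seven days before readout; 100% = DMSO vehicle control viability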
Conditions: second compound 0.3 µM; first compound 0.316 µM
Answer with one of the outcomes given here: active, inactive

compound="Nc1ccn(C2OC(CO)C(O)C2(F)F)c(=O)n1 (centres undefined) + CCn1c(-c2cccnc2C(C)OC)c2c3cc(ccc31)N1CCOC(CC(NC(=O)C(C(C)C)N(C)C(=O)C3(F)CCN(C(=O)C#CC(C)(C)N(C)C)CC3)C(=O)N3CCCC(N3)C(=O)OCC(C)(C)C2)C1" label_class=active

Ask: What did the test return for CC(=O)OC12COC1CC(O)C1(C)C(=O)C(O)C3=C(C)C(OC(=O)C(O)C(NC(=O)OC(C)(C)C)c4ccccc4)CC(O)(C(OC(=O)c4ccccc4)C21)C3(C)C (centres undefined) + CCn1c(-c2cc(N3CCN(C)CC3)cnc2C(C)OC)c2c3cc(ccc31)-c1csc(n1)CC(NC(=O)C1CC1C)C(=O)N1CCCC(N1)C(=O)OCC(C)(C)C2 ?
Reply: inactive

Ask: What did the test return for CC(Nc1ccc2c(c1)OCCn1cc(N3C(=O)OCC3C(F)F)nc1-2)C(N)=O (centres undefined) + CCn1c(-c2cc(N3CCN(C)CC3)cnc2C(C)OC)c2c3cc(ccc31)-c1csc(n1)CC(NC(=O)C1CC1C)C(=O)N1CCCC(N1)C(=O)OCC(C)(C)C2 ?
Reply: inactive

Ask: What did the test return for CC(=O)OC12COC1CC(O)C1(C)C(=O)C(O)C3=C(C)C(OC(=O)C(O)C(NC(=O)OC(C)(C)C)c4ccccc4)CC(O)(C(OC(=O)c4ccccc4)C21)C3(C)C (centres undefined) + CCn1c(-c2cccnc2C(C)OC)c2c3cc(ccc31)N1CCOC(CC(NC(=O)C(C(C)C)N(C)C(=O)C3(F)CCN(C(=O)C#CC(C)(C)N(C)C)CC3)C(=O)N3CCCC(N3)C(=O)OCC(C)(C)C2)C1 ?
Reply: inactive

====

Test system: HOP-62 complex spheroids with HUVEC/MSC, viability
Assay: Anticancer human tumor HOP-62 cell line growth inhibition [RAS];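 also: spheroids exposed to agents for seven days before readout; 100% = DMSO vehicle control viability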
Conditions: second compound 3.16 µM; first compound 1 µM; stronger effect = lower value
measure_name: viability, T/C (%)
The reply should contain only the number, in %.

compound="CC(=O)OC12COC1CC(O)C1(C)C(=O)C(O)C3=C(C)C(OC(=O)C(O)C(NC(=O)OC(C)(C)C)c4ccccc4)CC(O)(C(OC(=O)c4ccccc4)C21)C3(C)C (configuration not stated) + C#Cc1c(F)ccc2cc(O)cc(-c3ncc4c(N5CC6CCC(C5)N6)nc(OCC56CCCN5CC(F)C6)nc4c3F)c12" target_desc="HOP-62 complex spheroids with HUVEC/MSC, viability" measure_name="viability, T/C" unit_name=% endpoint_value=14

Below: the item to evaluate.
Ask: Return the recorded viability, T/C value; entry: CC1(O)CCCC1n1c(=O)c(C(F)F)cc2cnc(NC3CCN(S(C)(=O)=O)CC3)nc21 (configuration not stated) + C#Cc1c(F)ccc2cc(O)cc(-c3ncc4c(N5CC6CCC(C5)N6)nc(OCC56CCCN5CC(F)C6)nc4c3F)c12
Reply: 41.4

====

Test system: HOP-62 complex spheroids with HUVEC/MSC, viability
Test: Anticancer human tumor HOP-62 cell line growth inhibition [RAS];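 also: spheroids exposed to agents for seven days before readout; 100% = DMSO vehicle control viability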
Details: second compound 0.1 µM; first compound 0.3 µM; stronger effect = lower value
measure_name: viability, T/C (%)
The reply should contain only the number, in %.

Worked cases, answers included:
compound="CC1(C)CCC(Nc2ncc(C(F)(F)F)c(-c3c[nH]c4c(P(C)(C)=O)c(C#N)ccc34)n2)CN1 (centres undefined) + C=CC(=O)N1CCN(c2nc(OCC3CCCN3C)nc3c(F)c(-c4nc(N)cc(C)c4C(F)(F)F)c(Cl)cc23)C(C)C1" measure_name="viability, T/C" endpoint_value=20
compound="CCc1c2c(nc3ccc(O)cc13)-c1cc3c(c(=O)n1C2)COC(=O)[C@]3(O)CC + C=CC(=O)N1CCN(c2nc(OCC3CCCN3C)nc3c(F)c(-c4nc(N)cc(C)c4C(F)(F)F)c(Cl)cc23)C(C)C1" measure_name="viability, T/C" endpoint_value=2.48

Ask: Return the recorded viability, T/C value; entry: CC1(C)CCC(Nc2ncc(C(F)(F)F)c(-c3c[nH]c4c(P(C)(C)=O)c(C#N)ccc34)n2)CN1 (centres undefined) + C#Cc1c(F)ccc2cc(O)cc(-c3ncc4c(N5CC6CCC(C5)N6)nc(OCC56CCCN5CC(F)C6)nc4c3F)c12
Reply: 28.5

Ask: Return the recorded viability, T/C value; entry: CCc1c2c(nc3ccc(O)cc13)-c1cc3c(c(=O)n1C2)COC(=O)[C@]3(O)CC + C#Cc1c(F)ccc2cc(O)cc(-c3ncc4c(N5CC6CCC(C5)N6)nc(OCC56CCCN5CC(F)C6)nc4c3F)c12
Reply: 3.12
